Target: PD-L1-streptavidin (UniProt Q9NZQ7 19-238)
Sequence (Q9NZQ7 19-238): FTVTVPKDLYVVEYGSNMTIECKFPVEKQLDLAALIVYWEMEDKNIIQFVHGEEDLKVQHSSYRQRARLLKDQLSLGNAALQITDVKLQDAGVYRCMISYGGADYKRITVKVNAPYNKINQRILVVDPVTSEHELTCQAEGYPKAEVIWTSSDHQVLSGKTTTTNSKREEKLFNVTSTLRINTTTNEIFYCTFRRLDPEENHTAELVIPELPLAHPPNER
Assay: BLI (BLItz)

binder: Q10 (protein) LDSPDRPWNPPTISPALLVVTEGDQATFTCSLSQTSESFVLNWYRISPSQQMDKLAAFPEDRSQPGQDTRFRVTQLPNGRDFHMSVDRARRQDSGSYLCVAISLAPKVQIKESLRAELRVTERRAEVPTAHPSPSPRPAGQFQ
Kd: 50.1 nM
//
binder: Q18 (protein) LDSPDRPWNPPTISPALLVVTEGDQATFTCGLPQTSESFVLNWYRIGPSQQMDKLAAFPEDRSQPGQDTRFRVTQLPNGRDFHMSVVRARRQDSGTYLCVAISLAPKVQIKESLRAELRVTERRAEVRTAHPSPSPRSAGQFQ
Kd: 46.9 nM
//
binder: Q33 (protein) LDSPDRPWNPPTISPALLVVTEGDQATFTCSFSRTSESFVLNWYRISPSQQTDKLAAFPEDRSQPGQDTRFRVTQLPNGRDFHMSVVGAQRQDSGTYLCVAISLAPKVQIKESLRAELRVTERRAEVPTAHPSPSPRPAGQFQ
Kd: 35.1 nM
//
binder: aglycosylated PD-1 variant Q12 (JY_Q12), soluble His-tagged protein (receptor) LDSPDRPLDPPTISPALLVVTEGDQATFTCSFSQTSKSFVLNWYRISPSQQTDKLAAFPEDRSQPGQDTRFRVTQLPNGRDFHMSVVRARRQDSGTYLCVAISLAPKVQIKESLRAELRVTERRAEVPTAHPSPSPRPACQFQ
Kd: 5.49 nM
